Values were extracted from the supplement of paper PMC7380943.

# Tested on: CLZ3 (HCA2 human fibroblast dual HR-NHEJ reporter);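 note: compound given one day before doxycycline, which switches on I-SceI endonuclease expression to create double-strand breaks within the integrated reporter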
# PROCEDURE TEXT: HR repair efficiency (tdTomato+ cells) relative to control (log10 fold); higher = more homologous recombination
# CONDITION SET: 5 µM; doxycycline 0.5 ug/mL
Counter-ions that a name gives are not always drawn.
READOUT TYPE: HR repair efficiency (log10)
# answer = number (no unit)

Sample records with HR repair efficiency (log10):
C[C@@H]1O[C@@H](OC[C@H]2O[C@@H](OCCc3ccc(O)c(O)c3)[C@H](O)[C@@H](O)[C@@H]2OC(=O)/C=C/c2ccc(O)c(O)c2)[C@H](O)[C@H](O)[C@H]1O [Forsythoside A] = 0.189
CC(C)=CCC[C@](C)(O)[C@H]1CC[C@]2(C)[C@@H]1[C@H](O)C[C@@H]1[C@@]3(C)CC[C@H](O[C@@H]4O[C@H](CO)[C@@H](O)[C@H](O)[C@H]4O[C@@H]4O[C@H](CO)[C@@H](O)[C@H](O)[C@H]4O)C(C)(C)[C@@H]3CC[C@]12C [R-Ginsenoside Rg3] = -0.0174
O=C(/C=C/c1ccc(O)c(O)c1)O[C@@H]1[C@H](O)C[C@@](O)(C(=O)O)C[C@H]1OC(=O)/C=C/c1ccc(O)c(O)c1 [Isochlorogenic acid B] = 0.105

Problem: So what HR repair efficiency (log10) did CO[C@]1(CC[C@H](C)CO[C@@H]2O[C@H](CO)[C@@H](O)[C@H](O)[C@H]2O)O[C@H]2C[C@H]3[C@@H]4CC[C@@H]5C[C@@H](O[C@@H]6O[C@H](CO)[C@H](O)[C@H](O)[C@H]6O[C@@H]6O[C@H](CO)[C@@H](O)[C@H](O)[C@H]6O)CC[C@]5(C)[C@H]4CC[C@]3(C)[C@H]2[C@@H]1C [Anemarsaponin E] get with CLZ3 (HCA2 human fibroblast dual HR-NHEJ reporter)?
Result: -0.0664

Problem: So what HR repair efficiency (log10) did O=C(O)C(O)Cc1ccc(O)c(O)c1 (stereo not drawn) [Sodium Danshensu] get with CLZ3 (HCA2 human fibroblast dual HR-NHEJ reporter)?
Result: 0.0346

Problem: So what HR repair efficiency (log10) did O=C1C[C@@H](c2ccccc2)Oc2cc(O)cc(O)c21 [Pinocembrin] get with CLZ3 (HCA2 human fibroblast dual HR-NHEJ reporter)?
Result: 0.0891

Problem: So what HR repair efficiency (log10) did COc1cc2c(cc1OC)-c1cc3ccc(OC)c(OC)c3c[n+]1CC2 [Palmatine hydrochloride] get with CLZ3 (HCA2 human fibroblast dual HR-NHEJ reporter)?
Result: 0.0612

Problem: So what HR repair efficiency (log10) did COc1cc2c(=O)c(-c3ccc(O)cc3)coc2cc1O [Glycitein] get with CLZ3 (HCA2 human fibroblast dual HR-NHEJ reporter)?
Result: 0.1

Problem: So what HR repair efficiency (log10) did O=c1ccc2ccc(O)cc2o1 [Umbelliferone] get with CLZ3 (HCA2 human fibroblast dual HR-NHEJ reporter)?
Result: 0.269
